Data origin: BigSolDB 2.1

Settings: in ethanol, 313.15 K

{"smiles": "CNC(=O)c1cc(Oc2ccc(N)cc2)ccn1", "solubility (mole fraction)": 0.044}

---

Conditions: in ethyl acetate, 283.15 K

{"smiles": "CNC(=O)c1cc(Oc2ccc(N)cc2)ccn1", "solubility (mole fraction)": 0.0637}

---

Settings: in ethanol, 323.15 K
parameter: solubility (mole fraction)

{"smiles": "CNC(=O)c1cc(Oc2ccc(N)cc2)ccn1", "parameter": "solubility (mole fraction)", "readout-value": 0.0764}

---

Conditions: in acetonitrile, 308.15 K
parameter: solubility (mole fraction)

{"smiles": "CNC(=O)c1cc(Oc2ccc(N)cc2)ccn1", "readout-value": 0.0897}
